Experiment: In vivo pharmacokinetic study in male ICR mice (compound alone)
Conditions: male, ICR, mouse, plasma, iv, 2 mg/kg, IV 2 mg/kg, 0.5 h (30 min), mouse plasma, individual mice 1#-3#; read-out: Plasma concentration (Calculated Concentration)
measured_quantity: concentration at 0.5 h (ng/mL)
Numbers only, in ng/mL.

Please report the recorded concentration at 0.5 h for Cc1cncc(C(=O)N2C[C@H]3CC[C@@H](C2)N3[C@H](c2cccc(F)c2)c2cn(CCc3ccsc3)nn2)c1 [Compound C5N17B] .
18.4

---

Provide the recorded half-life for the entries that follow.
Assay: in vivo
Details: ICR, mouse, po, 10 mg/kg, t1/2, p.o. in combination with ritonavir, p.o. 10 mg kg^−1 with 20 mg kg^−1 ritonavir, ICR mice, n = 3

Would you mind listing half-life for each of the following molecules?
1. CC(C)(C)[C@H](NC(=O)C(F)(F)F)C(=O)N1C[C@H]2[C@@H]([C@H]1C(=O)N[C@H](C#N)C[C@@H]1CCNC1=O)C2(C)C [Nirmatrelvir, reference compound]
2. Cc1cncc(C(=O)N2C[C@H]3CC[C@@H](C2)N3[C@H](c2cccc(F)c2)c2cn(CCc3ccsc3)nn2)c1 [Compound C5N17B]

1. 0.692 h
2. 3.14 h

Measured values drawn from paper PMC11578313 for this set.
